Data origin: patent US12528801B2

# EXPERIMENTAL SYSTEM: hTRPM8 (Homo sapiens, UniProt Q7Z2W7)
# Sequence (Q7Z2W7 whole entry): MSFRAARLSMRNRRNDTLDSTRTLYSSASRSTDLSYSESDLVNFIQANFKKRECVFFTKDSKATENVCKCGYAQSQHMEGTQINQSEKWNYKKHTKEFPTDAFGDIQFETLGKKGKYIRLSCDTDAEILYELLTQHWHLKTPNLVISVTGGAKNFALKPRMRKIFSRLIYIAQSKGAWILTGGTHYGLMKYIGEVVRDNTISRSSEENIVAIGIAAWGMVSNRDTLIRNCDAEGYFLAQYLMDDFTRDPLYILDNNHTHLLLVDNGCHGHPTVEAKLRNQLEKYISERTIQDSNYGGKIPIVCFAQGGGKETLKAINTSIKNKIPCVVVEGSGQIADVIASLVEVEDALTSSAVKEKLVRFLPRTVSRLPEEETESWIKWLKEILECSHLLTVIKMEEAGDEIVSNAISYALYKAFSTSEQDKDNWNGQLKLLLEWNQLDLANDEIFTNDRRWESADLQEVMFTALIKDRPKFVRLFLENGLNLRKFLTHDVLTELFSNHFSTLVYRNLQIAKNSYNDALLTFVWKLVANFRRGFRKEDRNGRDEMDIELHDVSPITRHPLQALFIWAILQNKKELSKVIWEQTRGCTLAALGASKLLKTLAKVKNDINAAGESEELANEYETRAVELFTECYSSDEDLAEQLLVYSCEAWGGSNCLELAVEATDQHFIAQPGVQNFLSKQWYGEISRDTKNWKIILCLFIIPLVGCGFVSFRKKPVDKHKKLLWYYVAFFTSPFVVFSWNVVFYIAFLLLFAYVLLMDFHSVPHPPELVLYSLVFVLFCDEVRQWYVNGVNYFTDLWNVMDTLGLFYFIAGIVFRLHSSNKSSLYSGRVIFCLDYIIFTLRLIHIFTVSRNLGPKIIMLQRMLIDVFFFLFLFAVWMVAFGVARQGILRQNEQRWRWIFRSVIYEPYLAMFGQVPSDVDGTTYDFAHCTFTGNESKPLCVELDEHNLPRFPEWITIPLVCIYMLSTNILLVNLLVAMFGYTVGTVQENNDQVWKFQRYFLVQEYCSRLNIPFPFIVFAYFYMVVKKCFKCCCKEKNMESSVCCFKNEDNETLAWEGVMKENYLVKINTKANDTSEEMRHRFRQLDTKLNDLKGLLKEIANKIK
# PROTOCOL: Assay on TRPM8 modulators: calcium imaging (Fluo-4, Flexstation) in HEK293 cell line stably expressing hTRPM8
# CONDITION INFO: HEK293 cells stably expressing hTRPM8; calcium influx, Fluo-4, Flexstation 3; sigmoidal dose-response fit
pEC50: −log10 of the molar value.
PROPERTY NAME: pEC50

COMPOUND	RECORDED RESULT
C=CCCC(=O)N1CCCCC1c1nc(-c2ccccc2)c[nH]1 (stereo not drawn)	6.00 to 6.52
COc1ccc(-c2cnc(C3CCCCN3C(=O)C(C)SC)[nH]2)cn1 (stereo not drawn)	6.52 to 7.30
CC=C(CC)C(=O)N1CCCCC1c1nc(-c2ccccc2)c[nH]1 (stereo not drawn)	6.52 to 7.30

Q. Identify measured pEC50 corresponding to CSC(C)C(=O)N1CCCCC1c1nc(-c2ccc(C)c(Cl)c2)c[nH]1 (stereo not drawn)
A. > 7.30

Q. Identify measured pEC50 corresponding to CSC(C)C(=O)N1CCCCC1c1nc(-c2ccc(C)nc2)c[nH]1 (stereo not drawn)
A. > 7.30

Q. Identify measured pEC50 corresponding to CCC(C)C(=O)N1CCCCC1c1nc(-c2ccc(C)cc2)co1 (stereo not drawn)
A. > 7.30

Q. Identify measured pEC50 corresponding to CSC(C)C(=O)N1CCCCC1c1nc(-c2ccc(C3CC3)cc2F)c[nH]1 (stereo not drawn)
A. > 7.30

Q. Identify measured pEC50 corresponding to CSC(C)C(=O)N1CCCCC1c1ncc(-c2ccc(C)cc2)s1 (stereo not drawn)
A. > 7.30

Q. Identify measured pEC50 corresponding to O=C(C1CCC1)N1CCCCC1c1ncc(-c2cccc(F)c2)[nH]1 (stereo not drawn)
A. 6.00 to 6.52

Q. Identify measured pEC50 corresponding to C[C@H](C(=O)N1CCCCC1c1nc(-c2ccccc2)c[nH]1)N(C)C (stereo partly drawn)
A. 6.00 to 6.52

Q. Identify measured pEC50 corresponding to C=C(C)C(=O)N1CCCCC1c1ncc(-c2ccc(C)cc2)[nH]1 (stereo not drawn)
A. > 7.30

Q. Identify measured pEC50 corresponding to CSC(C)C(=O)N1CCCCC1c1nc(-c2ccc(OC(F)F)c(F)c2)c[nH]1 (stereo not drawn)
A. > 7.30

Q. Identify measured pEC50 corresponding to CCCC(C)C(=O)N1CCCCC1c1ncc(-c2ccc(C)cc2)[nH]1 (stereo not drawn)
A. > 7.30

Q. Identify measured pEC50 corresponding to C/C=C(\C)C(=O)N1CCCCC1c1ncc(-c2ccc(F)c(F)c2)[nH]1 (stereo not drawn)
A. 6.52 to 7.30

Q. Identify measured pEC50 corresponding to "CS[C@H](C)C(=O)N1CCCC[C@@H]1c1ncc(-c2ccc(C)cc2)[nH]1"
A. > 7.30

Q. Identify measured pEC50 corresponding to CSC(C)C(=O)N1CCCCC1c1ncc(-c2ccc([N+](=O)[O-])cc2)[nH]1 (stereo not drawn)
A. > 7.30

Q. Identify measured pEC50 corresponding to O=C(c1cnns1)N1CCCCC1c1nc(-c2ccccc2)c[nH]1 (stereo not drawn)
A. 4.46 to 6.00

Q. Identify measured pEC50 corresponding to CSC(C)C(=O)N1CCCCC1c1nc(-c2cc(F)c(C#N)cc2F)c[nH]1 (stereo not drawn)
A. > 7.30

----------
The following compounds are listed with their measured EC50 values.
# EXPERIMENTAL SYSTEM: hTRPM8 (Homo sapiens)
# PROTOCOL: Assay on TRPM8 modulators: calcium imaging (Fluo-4, Flexstation) in HEK293 cell line stably expressing hTRPM8
# CONDITION INFO: HEK293 cells stably expressing hTRPM8; calcium influx, Fluo-4, Flexstation 3; sigmoidal dose-response fit

Q. Write down measured EC50 (hTRPM8 (Homo sapiens)) for this compound. CSC(C)C(=O)N1CCCCC1c1nc(-c2ccc3c(c2)CCO3)c[nH]1 (stereo not drawn) [Compound 18]
A. < 50 nM

Q. Write down measured EC50 (hTRPM8 (Homo sapiens)) for this compound. CSC(C)C(=O)N1CCCCC1c1ncc(-c2ccc3c(c2)OCO3)[nH]1 (stereo not drawn) [Compound 85]
A. < 50 nM

Q. Write down measured EC50 (hTRPM8 (Homo sapiens)) for this compound. CSC(C)C(=O)N1CCCCC1c1ncc(-c2ccccc2C(F)(F)F)[nH]1 (stereo not drawn) [Compound 119]
A. 300 to 1000 nM

Q. Write down measured EC50 (hTRPM8 (Homo sapiens)) for this compound. CSC(C)C(=O)N1CCCCC1c1ncc(Br)[nH]1 (stereo not drawn) [Compound 88]
A. 300 to 1000 nM

Q. Write down measured EC50 (hTRPM8 (Homo sapiens)) for this compound. CCC(C)C(=O)N1CCCCC1c1ncc(-c2ccccc2C)[nH]1 (stereo not drawn) [Compound 200]
A. 50 to 300 nM

----------
The following compounds are listed with their measured EC50 values.
# EXPERIMENTAL SYSTEM: UniProtKB Q7Z2W7
# PROTOCOL: Assay on TRPM8 modulators: calcium imaging (Fluo-4, Flexstation) in HEK293 cell line stably expressing hTRPM8
# CONDITION INFO: HEK293 cells stably expressing hTRPM8; calcium influx, Fluo-4, Flexstation 3; sigmoidal dose-response fit

Known EC50 results, listed for orientation:
COMPOUND	EC50
CSC(C)C(=O)N1CCCCC1c1ncc(-c2ccc(OC(F)(F)F)cc2)[nH]1 (stereo not drawn)	< 50 nM
CSC(C)C(=O)N1CCCCC1c1nc(-c2ccc(S(C)(=O)=O)cc2)c[nH]1 (stereo not drawn) [Compound 35]	1000 to 35000 nM
CSC(C)C(=O)N1CCCCC1c1nc(-c2cnn(C)c2)c[nH]1 (stereo not drawn)	300 to 1000 nM
CSC(C)C(=O)N1CCCCC1c1ncc(-c2ccc(C#N)c(F)c2)[nH]1 (stereo not drawn)	< 50 nM
CSC(C)C(=O)N1CCCCC1c1ncc(-c2ccc(CN)cc2)[nH]1 (stereo not drawn)	< 50 nM

Q. Identify measured EC50 corresponding to CSC(C)C(=O)N1CCCCC1c1ncc(-c2ccc(C)c(F)c2)[nH]1 (stereo not drawn)
A. < 50 nM

Q. Identify measured EC50 corresponding to COCCc1ccc(-c2cnc(C3CCCCN3C(=O)C(C)SC)[nH]2)cc1 (stereo not drawn)
A. 50 to 300 nM

Q. Identify measured EC50 corresponding to Cc1ccc(-c2cnc(C3CCCCN3C(=O)C(C)c3ccoc3)[nH]2)cc1 (stereo not drawn)
A. < 50 nM

Q. Identify measured EC50 corresponding to CSC(C)(C)C(=O)N1CCCCC1c1ncc(-c2ccc(C)cc2)[nH]1 (stereo not drawn)
A. < 50 nM

----------
The following molecules are listed with their measured pEC50 values.
# EXPERIMENTAL SYSTEM: hTRPM8 (Homo sapiens, UniProt Q7Z2W7)
# PROTOCOL: Assay on TRPM8 modulators: calcium imaging (Fluo-4, Flexstation) in HEK293 cell line stably expressing hTRPM8
# CONDITION INFO: HEK293 cells stably expressing hTRPM8; calcium influx, Fluo-4, Flexstation 3; sigmoidal dose-response fit
pEC50: −log10 of the molar value.

MOLECULE	pEC50
CSC(C)C(=O)N1CCC[C@@H]1c1ncc(-c2ccccc2)[nH]1 (some centres unmarked)	4.46 to 6.00

Q. Write down measured pEC50 (hTRPM8 (Homo sapiens, UniProt Q7Z2W7)) for this molecule. CCC(C)C(=O)N1CCCCC1c1ncc(Br)[nH]1 (centres unmarked)
A. 4.46 to 6.00

Q. Write down measured pEC50 (hTRPM8 (Homo sapiens, UniProt Q7Z2W7)) for this molecule. CSC(C)C(=O)N1CCCCC1c1nc(-c2ccc(CN3CCS(=O)(=O)CC3)cc2)c[nH]1 (centres unmarked)
A. 4.46 to 6.00

Q. Write down measured pEC50 (hTRPM8 (Homo sapiens, UniProt Q7Z2W7)) for this molecule. CSC(C)C(=O)N1CSCC1c1ncc(-c2ccc(C)cc2)[nH]1 (centres unmarked)
A. 6.52 to 7.30

Q. Write down measured pEC50 (hTRPM8 (Homo sapiens, UniProt Q7Z2W7)) for this molecule. O=C(C1CCCC1)N1CCCCC1c1nc(-c2ccccc2)c[nH]1 (centres unmarked)
A. 6.00 to 6.52

----------
# EXPERIMENTAL SYSTEM: hTRPM8 (Homo sapiens)
# PROTOCOL: Assay on TRPM8 modulators: calcium imaging (Fluo-4, Flexstation) in HEK293 cell line stably expressing hTRPM8
# CONDITION INFO: HEK293 cells stably expressing hTRPM8; calcium influx, Fluo-4, Flexstation 3; sigmoidal dose-response fit
PROPERTY NAME: EC50

Q. Identify measured EC50 corresponding to COc1ccc(-c2cnc(C3CCCCN3C(=O)C(C)SC)[nH]2)cc1OC (centres unmarked)
A. 1 to 35 µM

----------
The following molecules are listed with their measured EC50 values.
# EXPERIMENTAL SYSTEM: hTRPM8 (Homo sapiens)
# PROTOCOL: Assay on TRPM8 modulators: calcium imaging (Fluo-4, Flexstation) in HEK293 cell line stably expressing hTRPM8
# CONDITION INFO: HEK293 cells stably expressing hTRPM8; calcium influx, Fluo-4, Flexstation 3; sigmoidal dose-response fit

Known EC50 results, listed for orientation:
MOLECULE	EC50
Cc1ccc(-c2cnc(C3CCCCN3C(=O)C(C)S)[nH]2)cc1 (stereo not drawn) [Compound 157]	50 to 300 nM
CSC(C)C(=O)N1CCCCC1c1ncc(-c2ccc(C#N)cc2F)[nH]1 (stereo not drawn) [Compound 178]	< 50 nM
CCC(=O)N1CCCCC1c1ncc(-c2ccc(C)cc2)[nH]1 (stereo not drawn) [Compound 86]	50 to 300 nM

Q. Identify measured EC50 corresponding to CC(C)CC(=O)N1CCCCC1c1nc(-c2ccccc2)c[nH]1 (stereo not drawn) [Compound 180]
A. 1000 to 35000 nM

Q. Identify measured EC50 corresponding to Cc1ccc(-c2cnc(C3CCCCN3C(=O)C(C)[S+](C)[O-])[nH]2)cc1 (stereo not drawn) [Compound 101]
A. 50 to 300 nM

Q. Identify measured EC50 corresponding to CSC(C)C(=O)N1CCCCC1c1nc(-c2csc(C)c2)c[nH]1 (stereo not drawn) [Compound 110]
A. < 50 nM

Q. Identify measured EC50 corresponding to CSC(C)C(=O)N1CCCCC1c1nc(-c2ccc(NS(C)(=O)=O)cc2)c[nH]1 (stereo not drawn) [Compound 191]
A. 1000 to 35000 nM

Q. Identify measured EC50 corresponding to CSC(C)C(=O)N1CCCCC1c1ncc(-c2ccc(C(F)(F)F)cc2)[nH]1 (stereo not drawn) [Compound 124]
A. < 50 nM

Q. Identify measured EC50 corresponding to C=CC=CCC(=O)N1CCCCC1c1nc(-c2ccccc2)c[nH]1 (stereo not drawn) [Compound 50]
A. 1000 to 35000 nM

Q. Identify measured EC50 corresponding to CSC(C)C(=O)N1CCCCC1c1nc(-c2cncnc2)c[nH]1 (stereo not drawn) [Compound 115]
A. 1000 to 35000 nM

Q. Identify measured EC50 corresponding to CSC(C)C(=O)N1CCCCC1c1nc(-c2ccc(CN(C)C)s2)c[nH]1 (stereo not drawn) [Compound 42]
A. 1000 to 35000 nM
